Data origin: ChEMBL document CHEMBL1828544

species on record: Danio rerio; experiment: Antiangiogenic activity in fli-1:enhanced GFP expressing transgenic zebrafish embryo assessed as inhibition of neovacularisation at 20 uM after 24 hrs relative to control; assay type: functional
List of inhibition (INH) values.

Recorded results for 5 compounds are shown here.
cpd_smiles | inhibition (INH)
C=CCc1cc(-c2cc(F)cc(F)c2)ccc1O | <25%
C=CCc1cc(-c2ccccc2C(F)(F)F)ccc1O | <25%
C=CCc1cc(C=O)c(OCC)c(-c2ccc(OCC)c(CC=C)c2)c1 | <25%
C=CCc1cc(C=O)c(O)c(-c2cc(C=O)c(O)c(CC=C)c2)c1 | 50%
C=CCc1cc(-c2ccc(OC)cc2)cc(CC=C)c1O | <25%

Q: Report inhibition (INH), nothing else, for this compound: `C=CCc1ccc(O)c(-c2cccc([N+](=O)[O-])c2)c1`
Result: <25%

Q: Report inhibition (INH), nothing else, for this compound: `C=CC(C)(C)c1cc(-c2cccc([N+](=O)[O-])c2)ccc1O`
Result: <25%

Q: Report inhibition (INH), nothing else, for this compound: `C=CCc1cc(C=O)c(O)c(-c2ccc(O)c(CC=C)c2)c1`
Result: 25%

Q: Report inhibition (INH), nothing else, for this compound: `C=CCc1ccc(O)c(-c2ccc(OC)c(CC=C)c2)c1`
Result: 25%

Q: Report inhibition (INH), nothing else, for this compound: `C=CCc1ccc(O)c(-c2ccc(O)cc2)c1`
Result: <25%

Q: Report inhibition (INH), nothing else, for this compound: `C=CCc1ccc(O)c(-c2ccc(OC(C)C)c(CC=C)c2)c1`
Result: <25%

Q: Report inhibition (INH), nothing else, for this compound: `C=CCc1cc(C=O)c(OC)c(-c2ccc(O)c(CC=C)c2)c1`
Result: 25%
